These entries and their values trace back to the RNAGym collection of RNA variant scans (doi:10.1073/pnas.2313332121).

Parameter polymerase ribozyme fitness (log ratio): see the listing below.
B1: TPR t1 (parent)
chain: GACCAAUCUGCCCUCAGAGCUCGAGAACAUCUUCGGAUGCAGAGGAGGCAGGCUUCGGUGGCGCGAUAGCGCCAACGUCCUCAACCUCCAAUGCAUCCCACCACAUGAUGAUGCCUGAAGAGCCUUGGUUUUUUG

# Variants of: B1
# testProtocol: polymerase ribozyme fitness, log enrichment relative to wild type (log ratio); higher = more active; in vitro selection for triplet polymerase activity
Keep the answer to the number alone.

Below, each entry is followed by its recorded polymerase ribozyme fitness (log ratio) result.
{"columns": ["sequenceEntry", "numericResult"],
 "data": [
  ["GACCAAUCUGCCCUCAGAGCUCGAGAACAUCUUCAGAUGCAGAGGAAGCAGGCUUCUGUGGCGCGAUAGCGCCAACGUCCUCAACCUCCAAUGCAUCCCACCACAUGAUGAUGCCUGAAGAGCCUUGGUUUUUUG [G35A G47A G57U]", -3.97],
  ["GACCAAUCUGCCCUCAGAGCUCGAGAACAUCUUCGGAUGCAGAGGAGGCAGGCUUCGGUGGCGCGAUAGUGCCAACGUCCUCAACCUCCAAUGCGUCCCACCACAUGAUGAUGCCUGAAGAGCCUUGGUUUUUUG [C70U A95G]", -0.166],
  ["GACCAAUCUGCCCUCAGAGCUCGAGAACAUCUUCGGAUGCAGAGGAGGCAGGCUUCGGUGGCCCGAUAGCGCCAACGUCCUCAACCUCCAAUGCAUCCCACCACAUGAUGAUGCCUGAAGAGCCUUGGUUUAUUG [G63C U132A]", -0.875],
  ["GACCAAUCUGCCAUCAGAGCUCGAGAACAUCUUCGGAUGCAGAGGAGGCAGGCUUCGGUGGCGCGAUAGCGCCAACGUCCUCAACCUCCAAUGCAUCCCUCCACAUGAUGAUGCCUGAAGAGCCUUGGUUUUUUG [C13A A100U]", -2.85],
  ["GACCAAUAUGCCCUCAGCGCGCGAGAACAUCUUCGGAUGCAGAGGAGGCAGGCUUCGGUGGCGCGAUAGCGCCAACGUCCUCAACCUCCAAUGCAUCCCACCACAUGAUGAUGCCUGAAGAGCCUUGGUUUUUUG [C8A A18C U21G]", -4.13]
]}

Lab note: next variant to report on.
Please give the measured polymerase ribozyme fitness (log ratio) for this variant: GACCAAUCUGCCCUCAGAGCUCGAGAACAUCUUCGGAUGCAGAGGAGGCAGGCAUCGGUGGCGCGAUAGCGCCAACGUCCUCAACCUCGAAUGCAUCCCACCACAUGAUGAUGCCUGAAGAGCCUUGGUUUUUUG [U54A C89G]
-1.31
